- System: CCRF-CEM leukemia
- protocol_text: NCI tumour cell line growth inhibition, 48 h; in the data active = GI50 below about 0.43 µM; inactive = the rest
I would appreciate it if you answered using one of these outcomes: 1 (active), 0 (inactive)

What call does the record list for O=C1c2cccc(NCCN=Cc3ccccc3O)c2C(=O)c2c(NCCN=Cc3ccccc3O)cccc21 ?
0

What call does the record list for CN1CCN(Cc2ccc(NC(=O)c3cccc(C#Cc4cnc(N)c5ncccc45)c3F)cc2C(F)(F)F)CC1 ?
0

What call does the record list for Clc1ccc(OCc2nnc3n2N=C(c2ccc(Cl)cc2Cl)CS3)cc1 ?
0

What call does the record list for Cn1c(/C=C/[N+](=O)[O-])cc2ccccc21 ?
0

What call does the record list for COc1ccc2nc3cc(Cl)ccc3c(Sc3ccc([N+](=O)[O-])cc3)c2c1 ?
0

What call does the record list for COc1cc(/C=C/C(=O)N2CCN(C(=O)c3cc(OC)c(OC)c(OC)c3)CC2)ccc1OCCCOc1cc2c(cc1OC)C(=O)N1CCC[C@H]1C=N2 ?
1

What call does the record list for COc1cc(C(=O)N/N=C/c2ccc(N(C)C)cc2)cc(OC)c1OC ?
1

What call does the record list for O=C1c2ccccc2-c2c1c1ccccc1c(=O)n2CCCNCCCCNCCCN1C(=O)c2ccccc2C2C(=O)c3ccccc3C21 (stereo unspecified) ?
1

What call does the record list for COC1=CC(c2ccc[nH]2)=N/C1=C\c1[nH]c(C)c(C(=O)CCCCC(=O)Oc2ccc3c(c2)CCC2C3CC[C@]3(C)[C@@H](O)CC[C@@H]23)c1C (stereo partly specified) ?
0

What call does the record list for CC(=O)c1cc(C(=O)c2ccc3c(c2)Sc2ccccc2N3)c2cc(C)ccn12 ?
1

What call does the record list for CC(=O)[CH-]C(=O)c1ccccc1.CC(=O)[CH-]C(=O)c1ccccc1.C[C@]12CCC(=O)C=C1CC[C@@H]1C2CC[C@@]2(C)C1CC[C@@H]2[O-].C[C@]12CCC(=O)C=C1CC[C@@H]1C2CC[C@@]2(C)C1CC[C@@H]2[O-].Cl.[Ti+4] (stereo partly specified) ?
0

What call does the record list for CCN(CC)C1CCC(Nc2c(C(C)=O)cnc3ccc(-c4ccc(O)c(Cl)c4)cc23)CC1 (stereo unspecified) ?
1

What call does the record list for CCCCCCCCC(=O)OCC(CS[As](C)C)OC(=O)CCCCCCCC (stereo unspecified) ?
1

What call does the record list for O=C(Nc1ccccc1)c1cc(S(=O)(=O)Nc2nc3ccccc3o2)c(SCc2ccccc2)cc1Cl ?
0

What call does the record list for Cc1ccc(NC(=O)c2sc3nc4c(cc3c2N)C(=O)CCC4)cc1C ?
1

What call does the record list for COc1cc([C@@H]2C[C@H]2c2cc(SC)n[nH]2)cc(OC)c1OC ?
0

----------
Please provide measured TGI for the entries that follow.
- Test system: U251 CNS
- protocol_text: NCI tumour cell line growth inhibition, 48 h

Give the value of TGI reported for the following: FC(F)(Sc1ncc[nH]1)c1nc2ccccc2o1
> 100 µM

Give the value of TGI reported for the following: Cc1ccc(NC(=O)/C(Cl)=C(/Cl)C(=O)O)cc1
30.9 µM

Give the value of TGI reported for the following: COc1cc2c(cc1OC)C(=O)/C(=C/c1cc(OC)c(OC)c(OC)c1)C2
> 100 µM

Give the value of TGI reported for the following: O=C(CSc1nc2ccc(I)cc2c(=O)n1Cc1ccccc1)NNC(=O)c1ccccc1
> 100 µM

Give the value of TGI reported for the following: O=C1c2cc([N+](=O)[O-])ccc2-c2ccc3c4ccc5c6c(ccc(c7ccc1c2c73)c64)C(=O)c1cc([N+](=O)[O-])ccc1-5
> 100 µM
